Cited source for all entries: patent US20260022114A1

Listed below: IC50 values for each entry.
TARGET_OR_SYSTEM: PolQ ATPase enzyme (1-894) (Homo sapiens (Human))
Sequence (O75417 1-894): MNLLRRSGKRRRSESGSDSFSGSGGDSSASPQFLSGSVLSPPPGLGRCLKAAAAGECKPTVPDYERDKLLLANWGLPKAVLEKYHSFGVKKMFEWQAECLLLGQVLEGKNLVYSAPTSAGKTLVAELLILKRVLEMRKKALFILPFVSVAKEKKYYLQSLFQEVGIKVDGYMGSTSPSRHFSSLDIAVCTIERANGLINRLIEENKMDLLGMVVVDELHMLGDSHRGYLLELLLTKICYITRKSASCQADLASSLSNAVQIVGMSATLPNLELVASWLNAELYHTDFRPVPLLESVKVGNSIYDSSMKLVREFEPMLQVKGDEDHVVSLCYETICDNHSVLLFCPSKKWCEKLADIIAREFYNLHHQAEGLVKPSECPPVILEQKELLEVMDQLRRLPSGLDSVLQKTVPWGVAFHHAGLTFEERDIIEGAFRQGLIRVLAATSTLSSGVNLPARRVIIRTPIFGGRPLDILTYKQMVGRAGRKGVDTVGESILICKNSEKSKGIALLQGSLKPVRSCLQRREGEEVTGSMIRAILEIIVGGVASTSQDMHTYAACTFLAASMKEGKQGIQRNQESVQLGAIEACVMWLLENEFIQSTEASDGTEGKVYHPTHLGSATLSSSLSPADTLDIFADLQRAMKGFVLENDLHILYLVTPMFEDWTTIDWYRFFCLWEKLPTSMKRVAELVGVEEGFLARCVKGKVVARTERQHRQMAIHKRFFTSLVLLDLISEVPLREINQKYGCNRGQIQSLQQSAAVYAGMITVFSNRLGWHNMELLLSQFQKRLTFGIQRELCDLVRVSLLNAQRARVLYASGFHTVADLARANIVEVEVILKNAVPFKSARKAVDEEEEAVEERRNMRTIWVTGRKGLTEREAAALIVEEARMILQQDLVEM
ASSAY_NOTES: Polθ ATPase enzymatic assay (0.5 nM enzyme concentration), ADP-Glo
Assay type: biochemical
TEST_PARAMETERS: 0.5 nM PolQ ATPase enzyme (1-894); average IC50

[in] Identify measured IC50 obtained with PolQ ATPase enzyme (1-894) (Homo sapiens (Human)) for COc1cnc(C(F)F)cc1-c1cc(C#CCC2CCNC2=O)ncc1C(=O)Nc1nnc(C#CC2CC2)s1 (racemic) .
[out] < 0.25 nM

---
[in] Consider the molecule COc1cnc(C(F)F)cc1-c1cc(C#CCN2CCCC2=O)ncc1C(=O)Nc1nnc(C#CC2CC2)s1 tested on PolQ ATPase enzyme (1-894) (Homo sapiens (Human)); state its IC50.
[out] < 0.25 nM

[in] Provide IC50, tested on PolQ ATPase enzyme (1-894) (Homo sapiens (Human)), for COc1cnc(C(F)F)cc1-c1cc(C#CCNCC(F)(F)F)ncc1C(=O)Nc1nnc(C#CC2CC2)s1 .
[out] < 0.25 nM
